target or system: ctRetromer (Chaetomium thermophilum Retromer trimer of ctVps35, ctVps26 and ctVps29) (Chaetomium thermophilum)
protocol summary: ITC; Microcal PEAQ ITC, 25 °C, 50 mM Tris-HCl pH 7.5, 200 mM NaCl, 2 mM β-ME; Vps5/Vps17/SNX1 construct or peptide (200-400 µM) titrated into 10-15 µM Retromer or Vps29; single-site model, N set to 1.0 if close to 1
Where no end group is shown, it is not given here.
experimental readout: Kd (µM)
The figure you give is taken to be in µM; do not add the unit.

Inquiry: Kd for VAKPKSLEAVEDDPLGPLGA (domain or fragment, also: GST fusion) [GST-ctVps5_(61–80)] ?
Reply text: 60.1

Inquiry: Value lookup for Kd; key = SRATPRRIVAKPKSLEAVEDDPLGPLGA [ctVps5_(53–80) peptide]
Reply text: 0.74
